study system: recombinant human TGF-β1 (Homo sapiens)
Construct: purchased R&D systems
Sequence (P01137 279-390 limits assumed): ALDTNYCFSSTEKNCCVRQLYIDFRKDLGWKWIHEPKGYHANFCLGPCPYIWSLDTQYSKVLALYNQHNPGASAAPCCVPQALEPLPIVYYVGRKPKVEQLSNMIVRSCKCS
assay name: ELISA of HA-tagged peptides with TGF-β1 beads
Type: binding
condition set: relative value with binding of peptide TGFb1_061 (SEQ ID NO: 62) to TGF-β1 set to 100%; HA-tagged peptides, TGF-β1 beads ELISA
Source text: In this Example, ELISA was used to evaluate the binding between TGF-β1 and each of various peptides consisting of the amino acid sequences set forth in SEQ ID NOs: 34-69 synthesized in Examples 6 and 7. […] Note that the binding activity was expressed as a relative value when the ability of binding the peptide TGFb1_061 (SEQ ID NO: 62) to TGF-β1 was set to 100%.
Positions of bridges follow the written chain, without caps; N, C: chain ends. Non-standard residues stand in square brackets, D forms with d. No end group written: not given here. 1Nal = N[C@@H](Cc1cccc2ccccc12)C(=O)O; Gly(NCH2CH2Ph) = O=C(O)CNCCc1ccccc1
test readout: Activity of binding to TGF-β (%)

67 ({CH2CO}-F[1Nal]VVNVYDE[Gly(NCH2CH2Ph)]V[1Nal]YHVCG; thioether N-16; also: HA-tag) [compound 67] | 116
57 ({CH2CO}-F[1Nal]VVNVQDD[Gly(NCH2CH2Ph)]V[1Nal]YHVCG; thioether N-16; also: HA-tag) [compound 57] | 90
64 ({CH2CO}-F[1Nal]VVNVYDK[Gly(NCH2CH2Ph)]V[1Nal]YHVCG; thioether N-16; also: HA-tag) [compound 64] | 102
61 ({CH2CO}-F[1Nal]VVNVYKD[Gly(NCH2CH2Ph)]V[1Nal]YHVCG; thioether N-16; also: HA-tag) [compound 61] | 98
58 ({CH2CO}-F[1Nal]VVNVYED[Gly(NCH2CH2Ph)]V[1Nal]YHVCG; thioether N-16; also: HA-tag) [compound 58] | 93
